Below, each entry is listed with its recorded ELISA CD137 (RLU).
target: T1, recombinant biotinylated CD137 protein (Fc-fusion protein, R&D Systems 838-4B) (human, UniProt Q07011 24-186, biotinylated, sites not stated); assay: ELISA, lysate on biotinylated CD137-Fc
T1 construct: Bought Fc fusion; also called CD137-Fc
Value expressed in RLU; do not type the unit.

Study these solved cases before continuing.
binder="ISOP193FR9P1A11 (designed binder, not shown: small tags and cut ends) LPAPKNLVVSRVTEDSARLSWTAPDAAFDSFAIQYWEGWEWGEAIVLTVPGSERSYDLTGLKPGTEYLVTIYGVKGGHWSRPLSAIFTT" readout_unit=RLU observed_result=5.78e+06
binder="ISOP193FR9P1G9 (designed binder, not shown: small tags and cut ends) LPAPKNLFVSRVTEDSARLSWTAPDAAFDSFQIYYREQWWDGEAIVLTVPGSERSYDLTGLKPGTEYLVTIYGVKGCDWSDPLSAIFTT" readout_unit=RLU observed_result=1.28e+07
binder="ISOP193BR9P1G9 (designed binder, not shown: small tags and cut ends) LPAPKNLVVSRVTEDSARLSWKQVTVAPEFDSFLIQYQESEKVGEAIVLTVPGSERSYDLTGLKPGTEYTVSIYGVKFPYYYATADSNPLSAIFTT" readout_unit=RLU observed_result=3.73e+06
binder="ISOP193AR9P1G11 (designed binder, not shown: small tags and cut ends) LPAPKNLVVSRVTEDSARLSWTNEQITKYGFDSFLIQYQESEKVGEAIVLTVPGSERSYDLTGLKPGTEYTVSIYGVGRHYTVYDSNPLSAIFTT" readout_unit=RLU observed_result=5.89e+06
binder="ISOP193HR9P1A7 (designed binder, not shown: small tags and cut ends) LPAPKNLVVSRVTEDSARLSWTAPDAAFDSFDIYYYELRLGGEAIVLTVPGSERSYDLTGLKPGTEYLVTIYGVKVCNASTPLSAIFTT" readout_unit=RLU observed_result=1.48e+07

Which ELISA CD137 (RLU) reading was recorded for the binder ISOP193AR9P1B12 (designed binder, not shown: small tags and cut ends) LPAPKNLVVSRVTEDSARLSWTNEQITKYGFDSFLIQYQESEKVGEAIVLTVPGSERSYDLTGLKPGTEYTVSIYGVGAPYTVYDSNPLSAIFTT ? 2.76e+06

Which ELISA CD137 (RLU) reading was recorded for the binder ISOP193FR9P1A5 (designed binder, not shown: small tags and cut ends) LPAPKNLVVSRVTEDSARLSWTAPDAAFDSFEIYYIEPIAPGEAIVLTVPGSERSYDLTGLKPGTEYWVTIYGVKGCDWSDPLSAIFTT ? 9.07e+06

Which ELISA CD137 (RLU) reading was recorded for the binder ISOP193FR9P1G4 (designed binder, not shown: small tags and cut ends) LPAPKNLVVSRVTEDSARLSWTAPDAAFDSFEIYYFENELGGEAIVLTVPGSERSYDLTGLKPGTEYLVTIYGVKGGDWSDPLSAIFTT ? 1.4e+07

Which ELISA CD137 (RLU) reading was recorded for the binder ISOP193HR9P1G5 (designed binder, not shown: small tags and cut ends) LPAPKNLVVSRVTEDSARLSWTAPDAAFDSFDIYYYELRLGGEAIVLTVPGSERSYDLTGLKPGTEYLVTIYGVKGCAASDPLSAIFTT ? 1.51e+07

Which ELISA CD137 (RLU) reading was recorded for the binder ISOP193ER9P1G4 (designed binder, not shown: small tags and cut ends) LPAPKNLVVSRVTEDSARLSWTAPDAAFDSFDIYYFEHPVGGEAIVLTVPGSERSYDLTGLKPGTEYLVTIYGVKGGNFSFPLSAIFTT ? 1.38e+07
